targetOrSystem: T1, EsCas13d, nuclease-dead (Eubacterium siraeum, UniProt B0MS50, R295A;H300A;R849A;H854A)
T1 sequence: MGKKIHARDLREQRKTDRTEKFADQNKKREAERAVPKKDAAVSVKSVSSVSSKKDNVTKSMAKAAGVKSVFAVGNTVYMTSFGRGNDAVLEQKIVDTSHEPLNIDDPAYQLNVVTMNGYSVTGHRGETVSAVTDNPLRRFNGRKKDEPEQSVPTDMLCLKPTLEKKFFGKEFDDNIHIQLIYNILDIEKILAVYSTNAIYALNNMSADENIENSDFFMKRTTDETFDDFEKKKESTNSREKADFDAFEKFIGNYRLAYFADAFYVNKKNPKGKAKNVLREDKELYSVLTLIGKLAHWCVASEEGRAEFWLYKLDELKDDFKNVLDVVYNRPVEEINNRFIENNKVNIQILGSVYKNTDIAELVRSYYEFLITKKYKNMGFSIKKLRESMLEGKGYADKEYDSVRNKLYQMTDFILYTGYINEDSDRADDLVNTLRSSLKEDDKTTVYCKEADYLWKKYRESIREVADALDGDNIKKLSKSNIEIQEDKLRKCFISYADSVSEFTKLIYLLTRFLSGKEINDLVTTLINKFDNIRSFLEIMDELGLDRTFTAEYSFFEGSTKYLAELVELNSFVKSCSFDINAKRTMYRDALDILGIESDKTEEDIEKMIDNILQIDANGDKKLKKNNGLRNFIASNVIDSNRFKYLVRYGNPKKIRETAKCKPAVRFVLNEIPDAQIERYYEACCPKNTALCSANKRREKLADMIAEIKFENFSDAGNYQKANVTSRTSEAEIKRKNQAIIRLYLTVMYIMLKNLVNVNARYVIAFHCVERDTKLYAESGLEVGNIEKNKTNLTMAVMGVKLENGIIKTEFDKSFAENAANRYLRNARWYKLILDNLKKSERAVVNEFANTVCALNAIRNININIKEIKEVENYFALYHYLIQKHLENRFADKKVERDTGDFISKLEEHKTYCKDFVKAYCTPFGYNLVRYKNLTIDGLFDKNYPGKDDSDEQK
procedureDetails: crRNA (strand 1, pre-loaded); Mg2+; 40 mM Tris-HCl pH 7.5, 150 mM NaCl, 6 mM MgCl2, 1 mM DTT, 0.1% Tween-20, 0.2 mg/ml BSA; 25 C; 10 min per concentration, then washed
measurementSetup: tags: His6-TwinStrep-SUMO cleaved; N-terminal SNAP kept (SNAP-Surface 488); label: 3' end held by stalled T7 RNA polymerase
pKd: −log10 of the molar value.
Below, each of the binders is paired with its reported pKd value.

# binder, pKd
data = [
    ("target 1 U3A,G15A (mixed) RNA 1: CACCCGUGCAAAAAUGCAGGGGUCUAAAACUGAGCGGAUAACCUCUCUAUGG RNA 2: GGGAAUGGAUCCACAUCUACGAAUUCGUACCAUAGAAAGGUUAUCCGCACACCGAGAUCGGAAGAGCACACGU", 7.70),
    ("target 1 MT 5'PFS UAG 3'PFS ACC (mixed) RNA 1: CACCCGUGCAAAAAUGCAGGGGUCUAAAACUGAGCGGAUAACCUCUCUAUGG RNA 2: GGGAAUGGAUCCACAUCUACGAAUUCUAGCCAUAGAGAGGUUAUCCGCUCAACCAGAUCGGAAGAGCACACGU", 7.55),
    ("target 1 insA 3' of 17,insG 3' of 7 (mixed) RNA 1: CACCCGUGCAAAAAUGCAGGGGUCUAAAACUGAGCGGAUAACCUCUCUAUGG RNA 2: GGGAAUGGAUCCACAUCUACGAAUUCGUACCAUAGAAGAGGUUAUCGCGCUCACCGAGAUCGGAAGAGCACACGU", 7.94),
    ("target 1 A1U,G12U (mixed) RNA 1: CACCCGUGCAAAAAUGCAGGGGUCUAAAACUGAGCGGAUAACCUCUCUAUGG RNA 2: GGGAAUGGAUCCACAUCUACGAAUUCGUACCAUAGAGAGUUUAUCCGCUCUCCGAGAUCGGAAGAGCACACGU", 7.85),
    ("target 2 MT 5'PFS GAG 3'PFS UUC (mixed) RNA 1: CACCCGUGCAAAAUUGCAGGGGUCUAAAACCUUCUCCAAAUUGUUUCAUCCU RNA 2: GGGAAUGGAUCCACAUCUACGAAUUCGAGAGGAUGAAACAAUUUGGAGAAGUUCAGAUCGGAAGAGCACACGU", 7.80),
    ("target 3 insG 3' of 2,insG 3' of 1 (mixed) RNA 1: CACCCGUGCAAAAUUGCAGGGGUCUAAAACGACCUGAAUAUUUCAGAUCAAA RNA 2: GGGAAUGGAUCCACAUCUACGAAUUCGUUUUUGAUCUGAAAUAUUCAGGUGCGUGCAGAUCGGAAGAGCACACGU", 7.59),
    ("target 1 MT 5'PFS GUG 3'PFS CUA (mixed) RNA 1: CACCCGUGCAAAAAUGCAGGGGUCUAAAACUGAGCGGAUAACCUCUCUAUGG RNA 2: GGGAAUGGAUCCACAUCUACGAAUUCGUGCCAUAGAGAGGUUAUCCGCUCACUAAGAUCGGAAGAGCACACGU", 7.79),
    ("target 2 MT 5'PFS GUC 3'PFS UAU (mixed) RNA 1: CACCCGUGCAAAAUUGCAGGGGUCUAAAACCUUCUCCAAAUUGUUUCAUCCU RNA 2: GGGAAUGGAUCCACAUCUACGAAUUCGUCAGGAUGAAACAAUUUGGAGAAGUAUAGAUCGGAAGAGCACACGU", 7.74),
    ("target 1 C2U,G15A (mixed) RNA 1: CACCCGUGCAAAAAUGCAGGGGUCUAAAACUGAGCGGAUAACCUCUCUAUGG RNA 2: GGGAAUGGAUCCACAUCUACGAAUUCGUACCAUAGAAAGGUUAUCCGCUUACCGAGAUCGGAAGAGCACACGU", 7.86),
    ("target 2 MT 5'PFS UUU 3'PFS AGG (mixed) RNA 1: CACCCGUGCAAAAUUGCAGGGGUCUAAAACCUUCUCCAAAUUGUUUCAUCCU RNA 2: GGGAAUGGAUCCACAUCUACGAAUUCUUUAGGAUGAAACAAUUUGGAGAAGAGGAGAUCGGAAGAGCACACGU", 8.31),
    ("target 2 MT 5'PFS AUA 3'PFS AUU (mixed) RNA 1: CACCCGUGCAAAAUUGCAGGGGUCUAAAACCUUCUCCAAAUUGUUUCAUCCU RNA 2: GGGAAUGGAUCCACAUCUACGAAUUCAUAAGGAUGAAACAAUUUGGAGAAGAUUAGAUCGGAAGAGCACACGU", 8.24),
    ("target 2 MT 5'PFS AAA 3'PFS UCU (mixed) RNA 1: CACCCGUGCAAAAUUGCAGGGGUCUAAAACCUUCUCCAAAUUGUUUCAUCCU RNA 2: GGGAAUGGAUCCACAUCUACGAAUUCAAAAGGAUGAAACAAUUUGGAGAAGUCUAGAUCGGAAGAGCACACGU", 7.82),
    ("target 1 insC 3' of 18,insA 3' of 10 (mixed) RNA 1: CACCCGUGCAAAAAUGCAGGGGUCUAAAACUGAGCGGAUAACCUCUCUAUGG RNA 2: GGGAAUGGAUCCACAUCUACGAAUUCGUACCAUACGAGAGGUUAAUCCGCUCACCGAGAUCGGAAGAGCACACGU", 7.28),
    ("target 1 U8G,U10G (mixed) RNA 1: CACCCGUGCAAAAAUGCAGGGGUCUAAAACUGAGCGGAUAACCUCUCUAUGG RNA 2: GGGAAUGGAUCCACAUCUACGAAUUCGUACCAUAGAGAGGUGAGCCGCUCACCGAGAUCGGAAGAGCACACGU", 7.70),
    ("target 3 insG 3' of 9,insG 3' of 9 (mixed) RNA 1: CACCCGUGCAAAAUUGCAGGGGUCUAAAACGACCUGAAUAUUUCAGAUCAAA RNA 2: GGGAAUGGAUCCACAUCUACGAAUUCGUUUUUGAUCUGAAAUAGGUUCAGGUCUGCAGAUCGGAAGAGCACACGU", 6.99),
]

Every entry's value here was drawn from paper PMC10786891.
